This collection of values is drawn from patent US20230295157A1.

Biological target: human plasma kallikrein (Homo sapiens (Human))
Test: Kallikrein inhibition assay (FLINT) utilizing a quenched AMC peptide substrate
Format: biochemical
Conditions: 30 min preincubation, kinetic reads over 30 min, Z-Gly-Pro-Arg-AMC substrate 50 μM; read-out: Kallikrein Kin Inh IC50
observation-type: pIC50
pIC50 (log units): -log10 of the concentration in mol/L.

O=C1C=C(c2c(-n3cnnn3)ccc(Cl)c2F)C[C@H]2CC[C@@H](c3ncc(-c4c[nH]nc4F)[nH]3)N12	7.49
[2H]c1c(NC)nc(F)c(-c2cnc([C@H]3CC[C@@H]4CC(c5c(-n6cnnn6)ccc(Cl)c5F)=CC(=O)N43)[nH]2)c1[2H] (relative stereo)	8.12
COC(=O)Nc1ccc(-c2cnc([C@@H]3CC[C@@H]4CC(c5c(-n6cnnn6)ccc(Cl)c5F)=CC(=O)N43)[nH]2)nc1	7.59

Exam item: Give recorded pIC50. CC(C)C(=O)Nc1ccccc1-c1cnc([C@@H]2CC[C@@H]3CC(c4c(-n5cnnn5)ccc(Cl)c4F)=CC(=O)N32)[nH]1 (relative stereo)
Marked response: 8.77

Exam item: Give recorded pIC50. NC(=O)c1ccc(-c2cnc([C@@H]3CC[C@@H]4CC(c5c(-n6cnnn6)ccc(Cl)c5F)=CC(=O)N43)[nH]2)cn1 (single isomer, unassigned)
Marked response: 7.78

Exam item: Give recorded pIC50. CCOC(=O)Nc1ncccc1-c1c[nH]c([C@@H]2CC[C@H]3CC(c4c(-n5cnnn5)ccc(Cl)c4F)=CC(=O)N32)n1
Marked response: 6.82

###

Biological target: Factor XIa (Homo sapiens (Human), UniProt P03951)
Sequence (P03951 388-625): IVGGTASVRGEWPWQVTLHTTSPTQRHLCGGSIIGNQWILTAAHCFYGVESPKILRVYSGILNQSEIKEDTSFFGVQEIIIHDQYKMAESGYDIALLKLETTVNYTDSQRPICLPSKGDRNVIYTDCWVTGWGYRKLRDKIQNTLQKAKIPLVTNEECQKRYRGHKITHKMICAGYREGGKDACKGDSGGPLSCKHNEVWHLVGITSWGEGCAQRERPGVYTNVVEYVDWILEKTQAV
Sequence (P03951 19-387 partner): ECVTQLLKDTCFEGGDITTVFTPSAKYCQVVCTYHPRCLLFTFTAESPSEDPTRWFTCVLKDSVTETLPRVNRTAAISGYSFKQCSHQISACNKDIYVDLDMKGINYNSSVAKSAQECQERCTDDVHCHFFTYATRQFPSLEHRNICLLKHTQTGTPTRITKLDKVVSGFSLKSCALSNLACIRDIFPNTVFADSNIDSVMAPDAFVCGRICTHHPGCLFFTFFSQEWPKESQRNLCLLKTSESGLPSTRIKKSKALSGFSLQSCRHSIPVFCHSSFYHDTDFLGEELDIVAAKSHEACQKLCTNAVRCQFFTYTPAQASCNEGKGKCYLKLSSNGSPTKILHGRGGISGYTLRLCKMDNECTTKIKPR
Assay: Factor XIa inhibition assay (FLINT) utilizing a fluorophore-quencher pair peptide substrate
Type: biochemical
Details: 30 min preincubation, kinetic reads over 30 min, 5Fam-KLTRAETV-K5Tamra substrate 15 μM; read-out: FXIa Kin Inh IC50
observation-type: log10(IC50) (log10 of the value in nM)
// units: nM (pre-log); metric: IC50; scale: log10

# count of solved cases: 5
CCC(=O)Nc1ccccc1-c1c[nH]c([C@@H]2CC[C@H]3CC(c4c(-n5cnnn5)ccc(Cl)c4F)=CC(=O)N32)n1 (relative stereo)	-0.22
CC(C)[C@H](N)C(=O)OCc1nccc(-c2cnc([C@@H]3CC[C@@H]4CC(c5c(-n6cnnn6)ccc(Cl)c5F)=CC(=O)N43)[nH]2)c1F	0.63
O=C(Nc1ccccc1-c1c[nH]c([C@@H]2CC[C@@H]3CC(c4c(-n5cnnn5)ccc(Cl)c4F)=CC(=O)N32)n1)C1CC1	-0.70
CC(O)COc1nccc(-c2cnc([C@@H]3CC[C@@H]4CC(c5c(-n6cnnn6)ccc(Cl)c5F)=CC(=O)N43)[nH]2)c1F (single isomer, unassigned)	0.11
CO[C@@H]1C[C@@H](c2nc(-c3ccc(N)nc3F)c[nH]2)N2C(=O)C=C(c3c(-n4cnnn4)ccc(Cl)c3F)CC12 (stereo partly drawn)	-0.22

Exam item: Give recorded log10(IC50). CCOC(=O)NCc1nccc(-c2cnc([C@@H]3CC[C@@H]4CC(c5c(-n6cnnn6)ccc(Cl)c5F)=CC(=O)N43)[nH]2)c1F
Marked response: 0.43

Exam item: Give recorded log10(IC50). NC(=O)c1nccc(-c2cnc([C@@H]3CC[C@@H]4CC(c5c(-n6cnnn6)ccc(Cl)c5F)=CC(=O)N43)[nH]2)c1F
Marked response: 0.92

Exam item: Give recorded log10(IC50). O=C1C=C(c2c(-n3cnnn3)ccc(Cl)c2F)C[C@H]2CC[C@@H](c3ncc(-c4ccc5[nH]ccc5c4)[nH]3)N12
Marked response: 0.58

Exam item: Give recorded log10(IC50). O=C(Nc1ccncc1-c1c[nH]c([C@@H]2CCC3CC(c4c(-n5cnnn5)ccc(Cl)c4F)=CC(=O)N32)n1)C1CC1 (stereo partly drawn)
Marked response: -0.22

Exam item: Give recorded log10(IC50). CC(C)(O)CCc1nccc(-c2cnc([C@@H]3CC[C@H]4CC(c5c(-n6cnnn6)ccc(Cl)c5F)=CC(=O)N43)[nH]2)c1F (single isomer, unassigned)
Marked response: 0.73

Exam item: Give recorded log10(IC50). O=C1C=C(c2c(-n3cnnn3)ccc(Cl)c2F)C[C@H]2CC[C@@H](c3ncc(-c4ccnc(-n5ccnn5)c4)[nH]3)N12
Marked response: 1.05

Exam item: Give recorded log10(IC50). Nc1n[nH]c2cc(-c3cnc([C@@H]4CCC5CC(c6c(-n7cnnn7)ccc(Cl)c6F)=CC(=O)N54)[nH]3)ccc12 (stereo partly drawn)
Marked response: -0.70

###

Target: Factor XIa (Homo sapiens (Human))
Assay: Factor XIa inhibition assay (FLINT) utilizing a fluorophore-quencher pair peptide substrate
Assay type: biochemical
Conditions: 30 min preincubation, kinetic reads over 30 min, 5Fam-KLTRAETV-K5Tamra substrate 15 μM; read-out: FXIa Kin Inh IC50
pIC50: −log10 of the molar value.
Outcome: TRUE for pIC50 of at least 9; FALSE for anything lower.

COc1cc2[nH]cc(-c3cnc([C@@H]4CC[C@@H]5CC(c6c(-n7cnnn7)ccc(Cl)c6F)=CC(=O)N54)[nH]3)c2cn1	TRUE
O=C1C=C(c2c(-n3cnnn3)ccc(Cl)c2F)C[C@@H]2CC[C@@H](c3ncc(-c4ccnc(C(F)(F)F)c4)[nH]3)N12	FALSE

Exam item: Kindly determine if pIC50 recorded for O=C1C=C(c2c(-n3cnnn3)ccc(Cl)c2F)C[C@@H]2CC[C@@H](c3ncc(-c4ccc5[nH]c(=O)[nH]c5c4)[nH]3)N12 is above or exactly 9.
Marked response: TRUE

Exam item: Kindly determine if pIC50 recorded for O=C1C=C(c2c(-n3cnnn3)ccc(Cl)c2F)C[C@H]2CC[C@@H](c3ncc(-c4ccnc(COP(=O)(O)O)c4F)[nH]3)N12 is above or exactly 9.
Marked response: TRUE

###

Target: human plasma kallikrein (Homo sapiens (Human), UniProt P03952)
Sequence (P03952 391-638): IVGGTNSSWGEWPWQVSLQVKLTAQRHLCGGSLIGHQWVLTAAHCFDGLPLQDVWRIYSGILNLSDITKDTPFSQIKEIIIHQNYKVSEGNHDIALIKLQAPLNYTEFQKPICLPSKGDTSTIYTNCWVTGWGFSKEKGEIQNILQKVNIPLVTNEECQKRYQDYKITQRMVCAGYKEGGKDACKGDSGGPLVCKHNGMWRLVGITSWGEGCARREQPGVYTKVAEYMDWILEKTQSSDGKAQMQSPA
Sequence (P03952 20-390 partner): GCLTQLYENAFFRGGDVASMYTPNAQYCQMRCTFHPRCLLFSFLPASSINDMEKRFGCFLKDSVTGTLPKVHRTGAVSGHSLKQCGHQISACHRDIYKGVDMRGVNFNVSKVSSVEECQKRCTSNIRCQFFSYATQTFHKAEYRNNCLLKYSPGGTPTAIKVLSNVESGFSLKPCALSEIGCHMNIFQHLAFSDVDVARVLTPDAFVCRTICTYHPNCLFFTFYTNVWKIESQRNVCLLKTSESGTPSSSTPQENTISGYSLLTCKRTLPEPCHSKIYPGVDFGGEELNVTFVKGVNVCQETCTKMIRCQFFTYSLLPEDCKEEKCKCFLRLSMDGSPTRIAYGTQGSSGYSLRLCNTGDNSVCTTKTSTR
Assay: Kallikrein inhibition assay (FLINT) utilizing a quenched AMC peptide substrate
Type: biochemical
Settings: 30 min preincubation, kinetic reads over 30 min, Z-Gly-Pro-Arg-AMC substrate 50 μM; read-out: Kallikrein Kin Inh IC50
Reported pIC50 values for a set of compounds
pIC50 (log units): -log10 of the concentration in mol/L.

# count of solved cases: 3
C[C@H](Oc1nccc(-c2cnc([C@@H]3CC[C@H]4CC(c5c(-n6cnnn6)ccc(Cl)c5F)=CC(=O)N43)[nH]2)c1F)c1nnco1 (relative stereo)	7.89
O=C1C=C(c2c(-n3cnnn3)ccc(Cl)c2F)C[C@H]2CC[C@H](c3ncc(-c4ccnc(-n5cncn5)c4F)[nH]3)N12 (single isomer, unassigned)	7.69
NC(=O)c1cc(-c2nc([C@@H]3CCC4CC(c5c(-n6cnnn6)ccc(Cl)c5F)=CC(=O)N43)[nH]c2Cl)cs1 (stereo partly drawn)	9.15

Here's the next entry for you.
Exam item: Give recorded pIC50. O=C1C=C(c2c(-n3cnnn3)ccc(Cl)c2F)CC2CC[C@@H](c3nc(-c4ccnc(OC(F)F)c4)c(F)[nH]3)N12 (stereo in doubt)
Marked response: 8.27

###

Molecular target: Factor XIa (Homo sapiens (Human))
Experiment: Factor XIa inhibition assay (FLINT) utilizing a fluorophore-quencher pair peptide substrate
Format: biochemical
Conditions: 30 min preincubation, kinetic reads over 30 min, 5Fam-[…]-K5Tamra substrate 15 μM; read-out: FXIa Kin Inh IC50
Reported pIC50 values for a set of molecules
pIC50 (log units): -log10 of the concentration in mol/L.

Exam item: State pIC50 (Factor XIa (Homo sapiens (Human))) of CC1(C)C[C@@H](c2ncc(-c3ccc(N)nc3F)[nH]2)N2C(=O)C=C(c3c(-n4cnnn4)ccc(Cl)c3F)C[C@H]21 (relative stereo) [Example 337] .
Marked response: 8.82

Exam item: State pIC50 (Factor XIa (Homo sapiens (Human))) of [2H]C([2H])([2H])C(=O)Nc1cnccc1-c1c[nH]c([C@@H]2CCC3CC(c4c(-n5cnnn5)ccc(Cl)c4F)=CC(=O)N32)n1 (some centres unmarked) [Example 256] .
Marked response: 8.85

Exam item: State pIC50 (Factor XIa (Homo sapiens (Human))) of Cn1c(=O)[nH]c2cc(-c3cnc([C@@H]4CC[C@@H]5CC(c6c(-n7cnnn7)ccc(Cl)c6F)=CC(=O)N54)[nH]3)ccc21 (relative stereo) [Example 303] .
Marked response: 9.05

Exam item: State pIC50 (Factor XIa (Homo sapiens (Human))) of CNc1ccc(-c2cnc([C@@H]3CC[C@@H]4CC(c5c(-n6cnnn6)ccc(Cl)c5F)=CC(=O)N43)[nH]2)c(F)n1 (relative stereo) [Example 282] .
Marked response: 8.92

Exam item: State pIC50 (Factor XIa (Homo sapiens (Human))) of NC(=O)c1ccc(-c2nc([C@@H]3CC[C@@H]4CC(c5c(-n6cnnn6)ccc(Cl)c5F)=CC(=O)N43)[nH]c2Cl)s1 [Example 211] .
Marked response: 9.70

Exam item: State pIC50 (Factor XIa (Homo sapiens (Human))) of O=C1C=C(c2c(-n3cnnn3)ccc(Cl)c2F)CC2CCC(c3nc(-c4cccc(-c5ccn[nH]5)n4)c(F)[nH]3)N12 (single isomer, unassigned) [Example 66] .
Marked response: 7.26

Exam item: State pIC50 (Factor XIa (Homo sapiens (Human))) of O=C1C=C(c2c(-n3cnnn3)ccc(Cl)c2F)C[C@H]2CC[C@H](c3ncc(-c4ccnc(N5CCC5)c4F)[nH]3)N12 (single isomer, unassigned) [Example 110] .
Marked response: 7.96

Exam item: State pIC50 (Factor XIa (Homo sapiens (Human))) of CNc1ccc(-c2cnc([C@@H]3CC[C@@H]4CC(c5cc(Cl)ccc5-n5cnnn5)=CC(=O)N43)[nH]2)c(F)n1 (single isomer, unassigned) [Example 98] .
Marked response: 9.22

Exam item: State pIC50 (Factor XIa (Homo sapiens (Human))) of Nc1ccn(-c2nccc(-c3cnc([C@H]4CC[C@@H]5CC(c6c(-n7cnnn7)ccc(Cl)c6F)=CC(=O)N54)[nH]3)c2F)n1 (single isomer, unassigned) [Example 63] .
Marked response: 8.16

Exam item: State pIC50 (Factor XIa (Homo sapiens (Human))) of O=C1C=C(c2c(-n3cnnn3)ccc(Cl)c2F)CC2CC[C@@H](c3nc(-c4ccnc(OC(F)F)c4)c(F)[nH]3)N12 (stereo in doubt) [Example 3] .
Marked response: 8.41

Exam item: State pIC50 (Factor XIa (Homo sapiens (Human))) of O=C1C=C(c2c(-n3cnnn3)ccc(Cl)c2F)C[C@H]2CC[C@H](c3ncc(-c4c[nH]c5ccccc45)[nH]3)N12 (relative stereo) [Example 137] .
Marked response: 8.34
